run description: S. cerevisiae RM11-1a growth modifiers, primary screen, strain RM11-1a, OD600, basal, 24 h (AID 1177);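 further: cultures grown under basal conditions with no added stressor; test concentration not given here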
condition: OD600, 24 h, higher = more signal, called active from +8 up or from −8 down
Assign TRUE whenever z-score does not fall below -0.4; assign FALSE whenever it does.

Challenge: State whether the measured z-score reaches -0.4, counting equality as reaching it, for C/C=C\[C@@H](NCc1ccccc1Br)[C@@H](O)Cc1ccccc1
Response given: FALSE

Challenge: State whether the measured z-score reaches -0.4, counting equality as reaching it, for CCc1cccc(NC(=O)O[C@H]2[C@H](OC(=O)Nc3ccc4c(c3)OCO4)[C@@H](OC(=O)Nc3ccc4c(c3)OCO4)[C@@H](OC)O[C@@H]2CO)c1
Response given: TRUE

Challenge: State whether the measured z-score reaches -0.4, counting equality as reaching it, for CC(C)[C@@H](OCc1ccccc1)[C@H](C)C=NO[C@H](C)c1cn([C@H](CO)Cc2ccccc2)nn1
Response given: FALSE

Challenge: State whether the measured z-score reaches -0.4, counting equality as reaching it, for CO[C@H]1O[C@H](CO)[C@@H](OC(=O)Nc2ccc(C#N)cc2)[C@H](OC(=O)c2cc3ccccc3[nH]2)[C@H]1OC(=O)c1cc2ccccc2[nH]1
Response given: FALSE

Challenge: State whether the measured z-score reaches -0.4, counting equality as reaching it, for C#CCCCON=C1C[C@@H](O)[C@@H](O)[C@@H]2[C@@H]3C(=O)N([C@@H](C)c4ccccc4)C(=O)[C@@H]3CC[C@H]12
Response given: FALSE

Challenge: State whether the measured z-score reaches -0.4, counting equality as reaching it, for CS(=O)(=O)CCOC(=O)C1=CC(CCCO)=CC(c2cccs2)N(Cc2cccc(OC(F)(F)F)c2)C=C1C(=O)OCCS(C)(=O)=O (stereo not given)
Response given: TRUE

Challenge: State whether the measured z-score reaches -0.4, counting equality as reaching it, for COC(=O)[C@@H]1CC[C@H](C)[C@@H](c2ccc(C)cc2)N1C(=O)c1ccc(C=NOC(C)CN2CCCCc3nc(C)c(C)cc32)cc1 (stereo not given in full)
Response given: TRUE

Challenge: State whether the measured z-score reaches -0.4, counting equality as reaching it, for COc1ccccc1CN1C(=O)c2ccccc2[C@@]2(Cc3ccccc3N(C(C)C)C2=O)[C@@H]1c1ccc(CO)cc1
Response given: FALSE

Further cases:
Challenge: State whether the measured z-score reaches -0.4, counting equality as reaching it, for CCN1C(=O)[C@H]2[C@H]3[C@H](O)[C@H](O)CC(=NOCC=C(C)CCC=C(C)C)[C@H]3CC[C@H]2C1=O
Response given: FALSE

Challenge: State whether the measured z-score reaches -0.4, counting equality as reaching it, for CCN1C(=O)[C@H]2[C@H]3[C@H](O)[C@H](O)CC(=NOCc4ccccc4)[C@@H]3CC[C@H]2C1=O
Response given: FALSE

Challenge: State whether the measured z-score reaches -0.4, counting equality as reaching it, for COc1ccc(OC[C@H]2Cc3c(-c4ccccc4)nc4c(c3CO2)CN(CCOc2ccccc2)CC4)cc1
Response given: TRUE

Challenge: State whether the measured z-score reaches -0.4, counting equality as reaching it, for CCc1cc2c(nc1CC)CCN(CCC(C)=NOC(C)CN1CCCc3nc(C)c(C)cc31)C2 (stereo not given)
Response given: TRUE

Challenge: State whether the measured z-score reaches -0.4, counting equality as reaching it, for C#C[C@@H](CC)O[Si](C#Cc1ccc(Oc2ccccc2)cc1)(C(C)C)C(C)C
Response given: TRUE

Challenge: State whether the measured z-score reaches -0.4, counting equality as reaching it, for O=C1C[C@@H](O)[C@@H](O)[C@@H]2[C@@H]3C(=O)N(c4cccc(Oc5ccccc5)c4)C(=O)[C@@H]3CC[C@@H]12
Response given: TRUE
